Target or system full-length LRRK2 wild type (Homo sapiens, UniProt Q5S007): recorded IC50 listed per item.
Numbers only, in nM.

Examples with their reported IC50 follow.
1. [2H]C([2H])([2H])n1cc(Nc2ncc3cc(C#N)n([C@@H](C)COC)c3n2)c(O[C@@H]2COC[C@H]2O)n1 (single isomer, unassigned) [Example 116]
43
2. C[C@H]1COC[C@@H]1n1c(C#N)cc2cnc(Nc3cn(C)nc3OC3CCC34COC4)nc21 (stereo partly shown)
1
3. [2H]C([2H])([2H])n1cc(Nc2ncc3cc(C#N)n(C4COCC4C)c3n2)c(OC2CCC2(C)O)n1 (mixture of isomers) [Example 142]
3
4. [2H]C([2H])([2H])n1cc(Nc2ncc3cc(C#N)n([C@H]4COC[C@@H]4C)c3n2)c(OC(C)C)n1
1
5. C[C@@H]1OC[C@H]1n1c(C#N)cc2cnc(Nc3cn(C)nc3OC3COC3)nc21 (single isomer, unassigned) [Example 76]
241
6. CC(C)Oc1nn(C)cc1Nc1ncc2cc(C#N)n([C@@H]3CO[C@H]3C)c2n1 (single isomer, unassigned) [Example 78]
79
7. C[C@H]1COC[C@@H]1n1c(C#N)cc2cnc(Nc3cn(C4CC4)nc3OC3COC3)nc21
8
8. C[C@H]1COC[C@@H]1n1c(C#N)cc2cnc(Nc3ccc(CN(C)C)cc3OC3CC3)nc21
4
9. [2H]C([2H])([2H])n1cc(Nc2ncc3cc(C#N)n([C@H]4COC[C@@H]4C)c3n2)c(O[C@@H]2COC[C@H]2O)n1 (single isomer, unassigned)
14
10. [2H]C([2H])([2H])n1cc(Nc2ncc3cc(C#N)n([C@@H](C)COC)c3n2)c(O[C@@H]2COC[C@H]2O)n1 (single isomer, unassigned) [Example 117]
34

Record IC50 for all entries; do not skip any.
1. C[C@@H]1COC[C@H]1Oc1nn(C)cc1Nc1ncc2cc(C#N)n([C@H]3COC[C@@H]3C)c2n1 (single isomer, unassigned) [Example 2]
2. COCC(C)n1c(C#N)cc2cnc(Nc3cn(C4CCC(C)(O)CC4)nc3OC3CC3)nc21 (stereo not shown) [Example 107]
3. CC(C)Oc1nn(C)cc1Nc1ncc2cc(C#N)n([C@@H]3COC[C@@H]3C)c2n1 (racemic)

Response given:
1. 5
2. 90
3. 36

###

Field: IC50. Provide a value for each of the molecules that follow.
# Assayed target: full-length LRRK2 G2019S (Homo sapiens, UniProt Q5S007, G2019S)
# Construct: DYKDDDDK (FLAG)
# Sequence (Q5S007 whole entry G2019S): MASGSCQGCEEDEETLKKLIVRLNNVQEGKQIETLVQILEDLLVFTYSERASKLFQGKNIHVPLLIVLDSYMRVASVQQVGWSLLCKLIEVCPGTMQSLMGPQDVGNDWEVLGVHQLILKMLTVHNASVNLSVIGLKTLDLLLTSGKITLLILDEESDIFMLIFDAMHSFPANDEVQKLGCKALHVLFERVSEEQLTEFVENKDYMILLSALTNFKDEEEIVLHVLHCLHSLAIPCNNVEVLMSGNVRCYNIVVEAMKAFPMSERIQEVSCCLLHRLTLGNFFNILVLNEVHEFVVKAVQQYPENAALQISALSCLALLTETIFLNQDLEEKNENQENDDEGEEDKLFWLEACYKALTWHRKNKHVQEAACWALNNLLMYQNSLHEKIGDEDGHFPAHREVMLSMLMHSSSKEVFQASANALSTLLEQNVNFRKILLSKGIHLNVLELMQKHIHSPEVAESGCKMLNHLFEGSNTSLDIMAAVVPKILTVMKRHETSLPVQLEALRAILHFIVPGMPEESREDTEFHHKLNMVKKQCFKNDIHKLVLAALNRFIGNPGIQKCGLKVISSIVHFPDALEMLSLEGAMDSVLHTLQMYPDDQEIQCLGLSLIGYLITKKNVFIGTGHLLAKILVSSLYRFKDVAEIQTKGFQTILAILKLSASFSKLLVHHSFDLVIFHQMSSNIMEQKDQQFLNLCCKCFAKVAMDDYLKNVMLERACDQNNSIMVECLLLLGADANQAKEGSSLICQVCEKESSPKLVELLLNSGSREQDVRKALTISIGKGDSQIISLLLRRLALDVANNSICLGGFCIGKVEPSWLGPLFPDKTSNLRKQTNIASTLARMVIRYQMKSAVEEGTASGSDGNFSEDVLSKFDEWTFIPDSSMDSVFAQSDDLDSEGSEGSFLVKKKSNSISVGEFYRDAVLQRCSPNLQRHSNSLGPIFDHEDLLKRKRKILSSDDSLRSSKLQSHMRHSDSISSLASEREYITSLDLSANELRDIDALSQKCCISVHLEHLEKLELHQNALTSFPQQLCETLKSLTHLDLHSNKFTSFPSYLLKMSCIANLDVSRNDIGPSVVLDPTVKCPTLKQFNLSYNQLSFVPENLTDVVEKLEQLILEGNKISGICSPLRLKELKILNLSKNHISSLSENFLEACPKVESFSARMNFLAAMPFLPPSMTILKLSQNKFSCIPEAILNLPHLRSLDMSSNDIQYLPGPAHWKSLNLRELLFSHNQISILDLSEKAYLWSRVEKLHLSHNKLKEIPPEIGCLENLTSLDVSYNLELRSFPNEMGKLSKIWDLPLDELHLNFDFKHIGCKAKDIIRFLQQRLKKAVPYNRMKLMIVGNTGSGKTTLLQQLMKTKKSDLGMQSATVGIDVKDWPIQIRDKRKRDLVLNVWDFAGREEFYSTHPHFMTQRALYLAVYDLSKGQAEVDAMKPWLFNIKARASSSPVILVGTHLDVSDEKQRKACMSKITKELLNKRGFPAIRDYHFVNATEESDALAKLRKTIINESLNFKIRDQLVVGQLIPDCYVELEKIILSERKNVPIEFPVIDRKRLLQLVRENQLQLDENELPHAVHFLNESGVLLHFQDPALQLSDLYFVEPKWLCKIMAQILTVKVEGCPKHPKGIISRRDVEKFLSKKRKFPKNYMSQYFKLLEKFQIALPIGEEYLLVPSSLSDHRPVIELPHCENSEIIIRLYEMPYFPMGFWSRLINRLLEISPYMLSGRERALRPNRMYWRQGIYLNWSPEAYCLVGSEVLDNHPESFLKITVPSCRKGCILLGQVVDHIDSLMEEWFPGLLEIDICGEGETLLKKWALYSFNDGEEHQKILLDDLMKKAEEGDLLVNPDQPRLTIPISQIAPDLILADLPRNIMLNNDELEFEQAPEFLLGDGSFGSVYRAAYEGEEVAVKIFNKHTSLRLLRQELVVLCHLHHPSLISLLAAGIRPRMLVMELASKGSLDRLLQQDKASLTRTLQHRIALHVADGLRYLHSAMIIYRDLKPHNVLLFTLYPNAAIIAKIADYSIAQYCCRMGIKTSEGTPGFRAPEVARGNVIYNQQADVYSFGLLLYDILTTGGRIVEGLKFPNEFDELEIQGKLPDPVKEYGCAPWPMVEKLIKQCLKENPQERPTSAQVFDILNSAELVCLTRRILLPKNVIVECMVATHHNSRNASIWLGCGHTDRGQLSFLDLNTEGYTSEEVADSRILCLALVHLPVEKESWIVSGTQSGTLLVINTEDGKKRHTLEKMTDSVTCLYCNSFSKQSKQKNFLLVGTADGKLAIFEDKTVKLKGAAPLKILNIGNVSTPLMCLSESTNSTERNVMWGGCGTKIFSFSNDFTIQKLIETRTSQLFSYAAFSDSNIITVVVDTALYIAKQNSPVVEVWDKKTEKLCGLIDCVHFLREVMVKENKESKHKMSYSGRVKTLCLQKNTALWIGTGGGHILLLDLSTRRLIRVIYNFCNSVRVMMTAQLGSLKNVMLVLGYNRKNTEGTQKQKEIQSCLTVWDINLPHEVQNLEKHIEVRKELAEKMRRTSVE
# Experimental protocol: LRRK2-G2019S kinase activity assay (Lanthascreen TR-FRET)
# Condition notes: 1.1 mM ATP
Give bare numbers, in nM.

1. C[C@H]1COC[C@@H]1n1c(C#N)cc2cnc(Nc3cn(C)nc3OC3COC3)nc21
4
2. [2H]C([2H])([2H])n1cc(Nc2ncc3cc(C#N)n([C@H]4COC[C@@H]4C)c3n2)c(O[C@@H]2COC[C@H]2O)n1 (single isomer, unassigned) [Example 115]
17

Attention now shifts to the item below.
Challenge: Field: IC50 (full-length LRRK2 G2019S (Homo sapiens, UniProt Q5S007, G2019S)). Entry: CO[C@@H]1COC[C@H]1Oc1nn(C)cc1Nc1ncc2cc(C#N)n([C@H]3COC[C@@H]3C)c2n1 (single isomer, unassigned) [Example 12]
Response given: 6

###

# Assayed target: full-length LRRK2 G2019S (Homo sapiens, UniProt Q5S007, G2019S)
# Construct: DYKDDDDK (FLAG)
# Experimental protocol: LRRK2-G2019S kinase activity assay (Lanthascreen TR-FRET)
# Condition notes: 1.1 mM ATP
# Experimental: The potency of compounds was evaluated in vitro using the Lanthascreen® technology (ThermoFisher Scientific). […] The kinase reaction was initiated by addition of the ATP/LRRKtide substrate mix diluted in the reaction assay buffer. […] Plates are incubated for at least 30 minutes at room temperature and read on an Envision™ multimode plate reader (PerkinElmer) with LanthaScreen™. […]
Parameter measured: IC50 (nM)
One number for each entry, in nM.

1. C[C@@H]1COCC[C@H]1n1c(C#N)cc2cnc(Nc3cn(CCO)nc3OC3COC3)nc21 (single isomer, unassigned) [Example 161]
14
2. C[C@H]1COC[C@@H]1n1c(C#N)cc2cnc(Nc3cn(C4CC4)nc3OC3COC3)nc21 [Example 37]
6
3. [2H]C([2H])([2H])n1cc(Nc2ncc3cc(C#N)n([C@@H](C)COC)c3n2)c(OC2COC2(C)C)n1 (single isomer, unassigned) [Example 100]
39

Moving on to the next compound.
Challenge: Name the reported IC50 value associated with the compound COC[C@H](C)n1c(C#N)cc2cnc(Nc3ccc(C(C)(C)O)cc3OC3CC3)nc21 [Example 154]
Response given: 1

###

# Assayed target: full-length LRRK2 G2019S (Homo sapiens, UniProt Q5S007, G2019S)
# Construct: DYKDDDDK (FLAG)
# Experimental protocol: LRRK2-G2019S kinase activity assay (Lanthascreen TR-FRET)
# Condition notes: 1.1 mM ATP
# Experimental: The potency of compounds was evaluated in vitro using the Lanthascreen® technology (ThermoFisher Scientific). […] The kinase reaction was initiated by addition of the ATP/LRRKtide substrate mix diluted in the reaction assay buffer. […] Plates are incubated for at least 30 minutes at room temperature and read on an Envision™ multimode plate reader (PerkinElmer) with LanthaScreen™. […]
Exercise: state measured pIC50 for each of the compounds provided.
Give bare numbers, as −log10 of the molar value.

Please review the entries below; each comes with its answer.
1) CO[C@@H]1COC[C@H]1Oc1nn(C)cc1Nc1ncc2cc(C#N)n([C@H]3COC[C@@H]3C)c2n1 (single isomer, unassigned) [Example 13]
8.05
2) [2H]C([2H])([2H])n1cc(Nc2ncc3cc(C#N)n([C@H]4COC[C@@H]4C)c3n2)c(OC(C)C)n1 [Example 42]
8.70

For the next question, use this compound.
Challenge: // query pIC50 value for entry CO[C@H]1COC[C@H]1n1c(C#N)cc2cnc(Nc3cn(C(C)C#N)nc3OC(C)C)nc21 (single isomer, unassigned) [Example 56]
Response given: 8.40

###

# Assayed target: full-length LRRK2 wild type (Homo sapiens)
# Sequence (Q5S007 whole entry): as the sequence (Q5S007 whole entry G2019S) above, with S2019G counted along it
Parameter measured: pIC50
Answers are plain numbers, as −log10 of the molar value.

Worked examples, 2 molecules total:
1) C[C@H]1COC[C@@H]1n1c(C#N)cc2cnc(Nc3cn(C4COC4)nc3OC3CC3)nc21
8.30
2) COCCn1cc(Nc2ncc3cc(C#N)n(C4CCOCC4)c3n2)c(OC2CC2)n1
6.82

Provide pIC50 for all items below, preserving their order.
1. C[C@@H]1COC[C@H]1n1c(C#N)cc2cnc(Nc3cn(C)nc3OC3COC3)nc21
2. [2H]C([2H])([2H])n1cc(Nc2ncc3cc(C#N)n([C@H]4COC[C@@H]4C)c3n2)c(O[C@H]2CO[C@H]2C)n1 (single isomer, unassigned)
3. [2H]C([2H])([2H])n1cc(Nc2ncc3cc(C#N)n([C@H]4COC[C@@H]4C)c3n2)c(OC2COC2)n1

Response given:
1: 6.71; 2: 8.00; 3: 8.30

###

Assay read-out IC50; system under study: full-length LRRK2 wild type (Homo sapiens).
Numbers only, in nM.

1) C[C@H]1COC[C@H]1n1c(C#N)cc2cnc(Nc3cn(C)nc3OC3COC3)nc21 (single isomer, unassigned) [Example 46]
489
2) C[C@@H]1COC[C@H]1Oc1nn(C)cc1Nc1ncc2cc(C#N)n([C@H]3COC[C@@H]3C)c2n1 (single isomer, unassigned) [Example 3]
5
3) C[C@H]1COC[C@@H]1n1c(C#N)cc2cnc(Nc3cn(S(C)(=O)=O)nc3OC3COC3)nc21 [Example 34]
7

Hello, I would appreciate it if you could give IC50 for each entry below.
1. [2H]C([2H])([2H])n1cc(Nc2ncc3cc(C#N)n([C@H]4COC[C@@H]4C)c3n2)c(OC2CCOC2)n1 (single isomer, unassigned) [Example 111]
2. CC(C)Oc1nn(C)cc1Nc1ncc2cc(C#N)n([C@@H]3CO[C@H]3C)c2n1 (single isomer, unassigned) [Example 79]
3. COCC(C)n1c(C#N)cc2cnc(Nc3cn(C4CCC(C)(O)CC4)nc3OC3CC3)nc21 (stereo not drawn) [Example 106]

Response given:
1. 17
2. 9
3. 70

###

// full-length LRRK2 wild type (Homo sapiens, UniProt Q5S007) pIC50 records
Give bare numbers, as −log10 of the molar value.

1. C[C@@H]1OC[C@H]1Oc1nn(C)cc1Nc1ncc2cc(C#N)n([C@H]3COC[C@@H]3C)c2n1 (single isomer, unassigned) [Example 7]
8.70
2. CC(Oc1nn(C)cc1Nc1ncc2cc(C#N)n([C@H]3COC[C@@H]3C)c2n1)C(F)(F)F (single isomer, unassigned) [Example 21]
9.00

Each of the following entries comes with a recorded value; kindly state pIC50 for each.
1. [2H]C([2H])([2H])n1cc(Nc2ncc3cc(C#N)n(C4CCOCC4)c3n2)c(OC2COC2(C)C)n1 (single isomer, unassigned)
2. CC(Oc1nn(C)cc1Nc1ncc2cc(C#N)n([C@H]3COC[C@@H]3C)c2n1)C(F)(F)F (single isomer, unassigned) [Example 22]

Response given:
[6.76, 7.52]
